Assay: Particle size analysis using the Aerosizer/Aerodisperser system
Assay type: physicochemical
Settings: particle size distribution, 75% under
Would you kindly list SIZE, 75% UNDER for each of these compounds?
Response body: numeric value in micron, unit text excluded.

### Prompt Quick one: SIZE, 75% UNDER of CC(C)Cc1ccc(C(C)C(=O)O)cc1 (stereo not shown) [Example 2, ibuprofen] ?
### Response 20.20

### Prompt Quick one: SIZE, 75% UNDER of CC(C)Cc1ccc(C(C)C(=O)O)cc1 (stereo not shown) [Example 1b, ibuprofen] ?
### Response 19.95

### Prompt Quick one: SIZE, 75% UNDER of CC(C)Cc1ccc(C(C)C(=O)O)cc1 (stereo not shown) [Example 1a, ibuprofen] ?
### Response 30.25

### Prompt Quick one: SIZE, 75% UNDER of CC(C)Cc1ccc(C(C)C(=O)O)cc1 (stereo not shown) [Example 1c, ibuprofen] ?
### Response 12.06

---

Test: Particle size analysis using the Aerosizer/Aerodisperser system
Assay type: physicochemical
Conditions: particle size distribution, 35% under
measured.parameter: SIZE, 35% UNDER

### Prompt Quick one: SIZE, 35% UNDER of CC(C)Cc1ccc(C(C)C(=O)O)cc1 (stereo not shown) [Example 1b, ibuprofen] ?
### Response 12.66 micron

### Prompt Quick one: SIZE, 35% UNDER of CC(C)Cc1ccc(C(C)C(=O)O)cc1 (stereo not shown) [Example 1a, ibuprofen] ?
### Response 19.62 micron

### Prompt Quick one: SIZE, 35% UNDER of CC(C)Cc1ccc(C(C)C(=O)O)cc1 (stereo not shown) [Example 2, ibuprofen] ?
### Response 12.49 micron

### Prompt Quick one: SIZE, 35% UNDER of CC(C)Cc1ccc(C(C)C(=O)O)cc1 (stereo not shown) [Example 1c, ibuprofen] ?
### Response 6.966 micron

---

Assay: Particle size analysis using the Aerosizer/Aerodisperser system
Type: physicochemical
Conditions: particle size distribution, 10% under
measured.parameter: SIZE, 10% UNDER (micron)
Response body: numeric value in micron, unit text excluded.

### Prompt Quick one: SIZE, 10% UNDER of CC(C)Cc1ccc(C(C)C(=O)O)cc1 (stereo not shown) [Example 1a, ibuprofen] ?
### Response 11.68

### Prompt Quick one: SIZE, 10% UNDER of CC(C)Cc1ccc(C(C)C(=O)O)cc1 (stereo not shown) [Example 1c, ibuprofen] ?
### Response 4.462

### Prompt Quick one: SIZE, 10% UNDER of CC(C)Cc1ccc(C(C)C(=O)O)cc1 (stereo not shown) [Example 1b, ibuprofen] ?
### Response 7.411

### Prompt Quick one: SIZE, 10% UNDER of CC(C)Cc1ccc(C(C)C(=O)O)cc1 (stereo not shown) [Example 2, ibuprofen] ?
### Response 7.327
